system: Colon cancer organoid; test: Identification of compartment-specific drug sensitivities in O20 CRC organoid-stroma F20 CAF co-cultures. Organoid is transduced with Lucferase2-P2A-EGFP lentivirus, fibroblast with Renilla-dsRed lentivirus. Dual-Glo Luciferase assay is used to report viability data.; format: functional, Homo sapiens; design: dose or concentration left out as unconfirmed; settings: Transduced with Renilla-dsRed lentivirus
QUANTITY MEASURED: Cell Viability (%)
Reply numerically in %, unit not repeated.

MOLECULE: CC1(C)C(N)=Nc2cc(OCCCCN3Cc4ccc(OCc5cn(CC(=O)N6CCC(CCN7CCCC7)CC6)nn5)cc4C3)c(OCC3CC3)cc21
Cell Viability, %: 125.652
--
MOLECULE: Cn1cncc1[C@@](O)(COc1ccc(C#N)cc1-c1ccc(OC(F)(F)F)cc1)c1ccc(C#N)cc1
Cell Viability, %: 110.638
--
MOLECULE: CCC(F)(F)c1cc(N2CCC(S(C)(=O)=O)CC2)nc2sc(C(N)=O)c(N)c12
Cell Viability, %: 81.0914
--
MOLECULE: Cc1cc(NC(=O)c2cccc(S(F)(F)(F)(F)F)c2)cc(-n2ccn3nc(-c4cccnc4)cc23)c1
Cell Viability, %: 127.793

Query: Find Cell Viability (Colon cancer organoid) for the entry O=C1NC(c2ccccn2)Sc2ccccc21 (stereo not given)
Reply: 85.8309

Where do these numbers come from? They come from ChEMBL document CHEMBL5608141.
